FYI, the data here is from PubChem BioAssay (NCI).

# Tested on: OVCAR-5 ovarian
# ASSAY_EXPLANATION: NCI tumour cell line growth inhibition, 48 h
I'd appreciate it if you could supply TGI values for the items below.

Reported TGI for `CC1(C)N=C(N)N=C(N)N1c1ccc(OCC(=O)Nc2ccccc2)c(Cl)c1` : what is it?
> 100 µM

// lookup TGI for CC(=O)OCC1OC(n2cc([N+](=O)[O-])c(=O)[nH]c2=O)C(OC(C)=O)C(OC(C)=O)C1OC(C)=O (stereo unspecified)
> 100 µM

Can you look up the measured TGI of CCCCCCCCCCCCCC(=O)OCC1OC(=O)CC1O (stereo unspecified) for me?
> 100 µM

Need TGI, item `CN(C)Cc1cc(C(=O)/C=C/c2ccc(O)cc2)cc(CN(C)C)c1O`
> 100 µM

Give the measured TGI of CCCNC(=O)CCC(C)[C@H]1CCC2C3C(C[C@H](OC(C)=O)[C@@]21C)[C@@]1(C)CCC2(C[C@H]1C[C@H]3OC(C)=O)OOC1(CCC(C)CC1)OO2 (stereo partly specified) .
87.4 µM

Report TGI for COc1cc(C2CC(C)(Nc3ccccc3)Oc3cc4c(cc32)OCO4)cc(OC)c1OC (stereo unspecified) please.
> 34.3 µM

Need TGI, item `NC(=O)/C=C/C(=O)O`
> 5000 µM

If you can, please state the reported TGI value of `CNC(=O)c1cc2c(Oc3ccc(NC(=O)C4(C(=O)Nc5ccc(F)cc5)CC4)cc3)ccnc2cc1OC` .
> 100 µM

Item CC12CC(=O)C3C(C(=O)C1)C32C (stereo unspecified) has what recorded TGI?
> 100 µM

So what's the measured TGI for this one? `O=C/C(=C(/Cl)c1ccc(O)cc1)c1ccccc1`
> 100 µM

# TGI lookup, item `Nc1c(-c2cccc3ccccc23)c2ccc([N+](=O)[O-])cc2c(=O)n1-c1nc2ccccc2s1`
> 41.2 µM

I have this compound here, `COCCOCCOCc1n(Cc2ccc3ccccc3n2)c2ccccc2[n+]1Cc1ccc2ccccc2c1` , and I need its recorded TGI.
7.43 µM

# query: TGI of entry C/C(CC1C2CCCC1C2)=N\NC(N)=O (stereo unspecified)
> 100 µM

Given the compound `CCOC(=O)C(=O)Nc1ccccc1C(F)(F)F` , what is its reported TGI?
> 100 µM

// TGI lookup, key: O=c1ncccn1C1C=C(CO)C(O)C1O (stereo unspecified)
> 50 µM

Recorded TGI of `C=CC[C@]12C[C@@H](C(=O)OC)N(C(=O)OC)[C@H]1N(S(=O)(=O)c1ccccc1)c1ccccc12` , please.
> 100 µM

Give its TGI value. Item: `O=C1C[C@H](Sc2ccccc2)C2(OCCO2)[C@@H](Sc2ccccc2)C1`
12.3 µM

So what does the record say about TGI for `CN(C)Cc1c[nH]c2c(NCCN)c3c(c(NCCN)c12)C(=O)c1ccccc1C3=O` ?
25.1 µM

Record request: TGI value, item `O=C1C(SCCO)=C(SCCO)C(=O)c2ccccc21`
2.81 µM

Please look up its TGI: CC(O)C1CC1(CO)CNc1cc(Cl)nc(N)n1 (stereo unspecified)
> 100 µM

Entry `Oc1ccccc1/C=N/c1nc2cc3sc(/N=C/c4ccccc4O)nc3cc2s1` has what TGI?
> 100 µM
